target: KDR (VEGFR2) (Homo sapiens, UniProt P35968)
Sequence (P35968 20-1356): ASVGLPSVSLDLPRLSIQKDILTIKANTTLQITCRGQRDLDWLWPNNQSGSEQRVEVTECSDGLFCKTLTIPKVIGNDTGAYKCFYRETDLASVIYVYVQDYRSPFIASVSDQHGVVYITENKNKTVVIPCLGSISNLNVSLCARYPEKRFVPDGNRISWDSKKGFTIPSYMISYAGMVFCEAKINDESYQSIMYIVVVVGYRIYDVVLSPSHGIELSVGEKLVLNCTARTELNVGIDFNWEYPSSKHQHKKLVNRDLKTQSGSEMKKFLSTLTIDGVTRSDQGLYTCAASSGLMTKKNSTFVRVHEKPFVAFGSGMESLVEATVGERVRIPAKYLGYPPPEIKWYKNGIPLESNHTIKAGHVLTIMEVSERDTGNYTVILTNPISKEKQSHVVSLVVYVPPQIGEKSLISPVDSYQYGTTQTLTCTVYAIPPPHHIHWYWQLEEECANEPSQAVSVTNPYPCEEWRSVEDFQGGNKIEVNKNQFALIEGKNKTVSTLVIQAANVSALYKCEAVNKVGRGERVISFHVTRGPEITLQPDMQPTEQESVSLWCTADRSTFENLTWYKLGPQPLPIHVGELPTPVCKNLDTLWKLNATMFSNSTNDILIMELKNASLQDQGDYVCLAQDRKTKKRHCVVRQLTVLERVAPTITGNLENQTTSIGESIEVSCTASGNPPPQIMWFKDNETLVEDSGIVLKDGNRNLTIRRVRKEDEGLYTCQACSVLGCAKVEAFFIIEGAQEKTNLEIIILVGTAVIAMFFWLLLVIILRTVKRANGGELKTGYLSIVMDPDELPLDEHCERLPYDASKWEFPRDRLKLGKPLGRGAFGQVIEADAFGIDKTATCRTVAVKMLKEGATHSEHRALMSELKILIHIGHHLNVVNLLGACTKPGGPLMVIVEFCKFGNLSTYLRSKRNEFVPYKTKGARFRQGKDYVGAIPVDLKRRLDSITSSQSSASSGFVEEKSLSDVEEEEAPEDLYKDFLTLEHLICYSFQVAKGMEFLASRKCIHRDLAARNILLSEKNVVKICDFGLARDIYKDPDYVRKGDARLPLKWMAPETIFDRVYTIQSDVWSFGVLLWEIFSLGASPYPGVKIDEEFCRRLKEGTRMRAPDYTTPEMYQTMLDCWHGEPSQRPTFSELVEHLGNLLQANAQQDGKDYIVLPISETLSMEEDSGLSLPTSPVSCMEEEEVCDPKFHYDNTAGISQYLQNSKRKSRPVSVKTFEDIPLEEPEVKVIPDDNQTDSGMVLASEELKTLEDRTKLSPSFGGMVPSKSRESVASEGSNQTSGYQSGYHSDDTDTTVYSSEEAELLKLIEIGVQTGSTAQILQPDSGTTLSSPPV
test.description: KDR (VEGFR2) in vitro kinase activity assay (HTRF kinEASE TK)
Assay type: biochemical
assay.context: compound 10 nM; read-out: VEGFR2 inhibition rate, 10 nM
measure: inhibition at 0.01 µM (%)
Give your result in % as a bare value.

query: Sample CN(c1cncc(-c2cnn(C)c2)c1)[C@H]1CCc2c(C(=O)Nc3cccc(C4CC4)c3)cccc21 [Compound 22a] — what was its inhibition at 0.01 µM?
result: 52.5

query: How about Cn1cc(-c2cnc(N)c(O[C@H]3CCc4c(C(=O)Nc5cccc(C6CC6)c5)cccc43)c2)cn1 ?
result: 97.8

query: How about Cn1cc2ncc(O[C@H]3CCc4c(C(=O)Nc5nn(C)c6cccc(F)c56)cccc43)cc2n1 [Compound 76aw] ?
result: 89.9

query: How about Cn1cc2ncc(N[C@H]3CCc4c(C(=O)Nc5nc(C6CC6)cs5)cccc43)cc2n1 [Compound 74h] ?
result: 60.3
